# test.name: Stability of 225Ac complexes in human serum (competition, TLC)
# Format: in vitro ADME
# recorded.conditions: ambient temperature, 4 d
property.label: % Stable (%)
Report the figure in % without appending any unit label.

Challenge: Name the recorded % Stable of the molecule listed here: O=C([O-])c1cccc(CN(CCN(Cc2cccc(C(=O)[O-])n2)CP(=O)([O-])[O-])CP(=O)([O-])[O-])n1.[225Ac+3] [[^225Ac(phospa)]^3−]
Response given: 76.2

Challenge: Name the recorded % Stable of the molecule listed here: O=C([O-])CN(Cc1cccc(C(=O)[O-])n1)C1CCCCC1N(CC(=O)[O-])Cc1cccc(C(=O)[O-])n1.[225Ac+3] (stereo not shown) [[^225Ac(CHXoctapa)]^−]
Response given: 96.7

Challenge: Name the recorded % Stable of the molecule listed here: O=C([O-])CN(CCN(CC(=O)[O-])Cc1cccc(C(=O)[O-])n1)Cc1cccc(C(=O)[O-])n1.[225Ac+3] [[^225Ac(octapa)]^−]
Response given: 95.9

Challenge: Name the recorded % Stable of the molecule listed here: O=C([O-])CN1CCN(CC(=O)[O-])CCN(CC(=O)[O-])CCN(CC(=O)[O-])CC1.[225Ac+3] [[^225Ac(DOTA)]^−, reference compound]
Response given: 91.1
